molecular target: mu opioid receptor (MOR) (Homo sapiens, UniProt P35372); assay: MOR cAMP agonist assay; settings: read-out: mOR cAMP EC50; CHO-K1 cells stably expressing mOR; cAMP levels
Sequence (P35372 whole entry): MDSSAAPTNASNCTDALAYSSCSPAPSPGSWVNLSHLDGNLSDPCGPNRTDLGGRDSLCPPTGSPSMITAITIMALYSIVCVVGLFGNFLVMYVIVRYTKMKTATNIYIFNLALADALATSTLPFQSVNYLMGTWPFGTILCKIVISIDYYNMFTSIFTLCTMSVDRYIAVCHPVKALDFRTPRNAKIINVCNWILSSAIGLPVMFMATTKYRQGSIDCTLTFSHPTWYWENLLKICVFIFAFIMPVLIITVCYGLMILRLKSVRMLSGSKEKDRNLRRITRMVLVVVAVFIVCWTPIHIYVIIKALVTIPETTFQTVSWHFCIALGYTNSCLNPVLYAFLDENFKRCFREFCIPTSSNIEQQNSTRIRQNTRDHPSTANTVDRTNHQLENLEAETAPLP
pEC50: −log10 of the molar value.
Answer each item with its documented pEC50.

Data point: CN(C)[C@H](CNC(=O)[C@@H]1C[C@@]1(C)c1ccccc1)Cc1ccc(C(N)=O)cc1Cl [Compound B-60] ; pEC50 = > 7.00

Data point: CN(C)[C@H](CNC(=O)[C@H]1C[C@@]1(C)c1ccccc1)Cc1ccc(O)cc1 [Compound B-58] ; pEC50 = 6.00 to 7.00

###

molecular target: mu opioid receptor (MOR) (Homo sapiens); assay: MOR cAMP agonist assay
MEASURED_METRIC: EC50

Value sought: EC50, system mu opioid receptor (MOR) (Homo sapiens), item CN(C)[C@H](CNC(=O)[C@@H]1C[C@]1(C)c1ccccc1)Cc1ccc(O)cc1Cl . Result: > 1000 nM

Value sought: EC50, system mu opioid receptor (MOR) (Homo sapiens), item CN(C)[C@H](CNC(=O)[C@H]1C[C@@]1(C)c1ccccc1)Cc1ccc(C(N)=O)cc1 . Result: < 100 nM

Value sought: EC50, system mu opioid receptor (MOR) (Homo sapiens), item CN(C)[C@H](CNC(=O)C1CC1(C)c1ccccc1)Cc1ccc(C(N)=O)cc1 (stereo partly drawn) . Result: < 100 nM

Value sought: EC50, system mu opioid receptor (MOR) (Homo sapiens), item C[C@]1(c2ccccc2)C[C@H]1C(=O)NC[C@H](Cc1ccc2[nH]ncc2c1)N1CCOCC1 . Result: > 1000 nM

Value sought: EC50, system mu opioid receptor (MOR) (Homo sapiens), item CC[C@@]1(c2ccccc2)C[C@H]1C(=O)NC[C@H](Cc1ccc(C(=O)NC)c(F)c1)N(C)C . Result: < 100 nM

Value sought: EC50, system mu opioid receptor (MOR) (Homo sapiens), item CN(C)[C@H](CNC(=O)[C@@H]1C[C@H]1c1ccccc1)Cc1ccc(O)cc1 . Result: < 100 nM

Value sought: EC50, system mu opioid receptor (MOR) (Homo sapiens), item CCNC(=O)c1ccc(C[C@@H](CNC(=O)[C@@H]2C[C@@]2(C)c2ccccc2)N(C)C)cc1F . Result: < 100 nM

Value sought: EC50, system mu opioid receptor (MOR) (Homo sapiens), item CN(C)[C@H](CNC(=O)[C@H]1C[C@@]1(C)c1ccccc1)Cc1ccc(O)cc1 . Result: 100 to 1000 nM

Value sought: EC50, system mu opioid receptor (MOR) (Homo sapiens), item CN(C)[C@H](CNC(=O)[C@@H]1C[C@]1(C)c1ccccc1)Cc1ccc(C(N)=O)cc1Cl . Result: < 100 nM

Value sought: EC50, system mu opioid receptor (MOR) (Homo sapiens), item CN(C)[C@H](CNC(=O)[C@@H]1C[C@@]1(C)c1ccccc1)Cc1c(F)cc(O)cc1F . Result: < 100 nM

Value sought: EC50, system mu opioid receptor (MOR) (Homo sapiens), item Cc1cc(C(N)=O)cc(C)c1C[C@@H](CNC(=O)C[C@H](C)c1ccccc1)N(C)C . Result: > 1000 nM

Value sought: EC50, system mu opioid receptor (MOR) (Homo sapiens), item CN(C)[C@H](CNC(=O)[C@@H]1C[C@]1(C)c1ccccc1)Cc1ccc(C(=O)NC2CC2)c(F)c1 . Result: < 100 nM

Value sought: EC50, system mu opioid receptor (MOR) (Homo sapiens), item C[C@@]1(c2ccccc2)C[C@H]1C(=O)NC[C@@H]1Cc2ccc(O)cc2N1 . Result: > 1000 nM

Value sought: EC50, system mu opioid receptor (MOR) (Homo sapiens), item CN(C)[C@H](CNC(=O)[C@@H]1C[C@]1(C)c1ccccc1)Cc1cc2cn[nH]c2cc1Cl . Result: < 100 nM

Value sought: EC50, system mu opioid receptor (MOR) (Homo sapiens), item CN(C)[C@H](CNC(=O)[C@@H]1C[C@]1(C)c1ccccc1)Cc1ccc2[nH]c(=O)oc2c1 . Result: < 100 nM

###

target: mu opioid receptor (MOR) (Homo sapiens); assay: MOR GTPγS agonist assay; assay type: biochemical; parameters: host or cells: CHO-K1; conditions: membranes of CHO cells over-expressing MOR; SPA beads; read-out: MOR GTPγS EC50
pEC50: −log10 of the molar value. Structures can show the parent of a compound that is named as a salt.
MEASURED_METRIC: pEC50

Data point: CNC(=O)c1cc(C)c(C[C@@H](CNC(=O)c2cccc(Cl)c2)N(C)C)c(C)c1 [Compound C-44] ; pEC50 = > 7.00

Data point: Cc1cc(O)cc(C)c1C[C@@H](CNC(=O)N1CCc2ccccc2C1)N(C)C [Compound C-55] ; pEC50 = < 6.00

Data point: CNC(=O)c1cc(C)c(C[C@@H](CNC(=O)c2ccc(Cl)c(Cl)c2)N(C)C)c(C)c1 [Compound C-42, Hydrochloride] ; pEC50 = > 7.00

Data point: CNC(=O)c1cc(C)c(C[C@@H](CNC(=O)c2ccc(Cl)cc2Cl)N(C)C)c(C)c1 [Compound C-16] ; pEC50 = > 7.00

Data point: Cc1cc(O)cc(C)c1C[C@@H](CNC(=O)c1ccc(Cl)c(Cl)c1)N(C)C [Compound C-24] ; pEC50 = > 7.00

###

biological target: kappa opioid receptor (KOR) (Homo sapiens, UniProt P41145); construct: host or cells: CHO-K1; assay: cell-based; details: kOR cAMP IC50, CHO-K1 cells expressing kOR; after activation with dynorphin B
Sequence (P41145 whole entry): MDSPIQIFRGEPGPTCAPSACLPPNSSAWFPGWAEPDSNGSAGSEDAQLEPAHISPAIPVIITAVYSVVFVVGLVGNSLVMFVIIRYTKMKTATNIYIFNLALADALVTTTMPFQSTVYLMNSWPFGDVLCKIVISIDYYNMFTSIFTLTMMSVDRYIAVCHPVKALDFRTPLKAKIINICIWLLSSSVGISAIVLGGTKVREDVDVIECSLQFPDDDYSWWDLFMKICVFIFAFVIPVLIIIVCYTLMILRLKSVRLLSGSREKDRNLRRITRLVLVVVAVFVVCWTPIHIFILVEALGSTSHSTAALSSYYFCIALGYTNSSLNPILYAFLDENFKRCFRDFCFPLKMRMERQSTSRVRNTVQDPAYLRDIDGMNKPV
MEASURED_METRIC: IC50

Data point: Cc1ccc(C(=O)NC[C@H](Cc2ccc(C(N)=O)cc2)N(C)C)c(C)c1 [Compound C-67] ; IC50 = > 1000 nM

Data point: Cc1cc(C[C@@H](CNC(=O)[C@@H]2C[C@]2(C)c2ccccc2)N(C)C)cc(C)c1O [Compound B-36] ; IC50 = < 100 nM

Data point: CN(C)[C@H](CNC(=O)[C@@H]1C[C@@]1(C)c1ccccc1)Cc1ccc(C(N)=O)cc1 [Compound B-3] ; IC50 = > 1000 nM

Data point: Cc1cc(O)ccc1C[C@@H](CNC(=O)[C@@H]1C[C@@]1(C)c1ccccc1)N(C)C [Compound B-56] ; IC50 = < 100 nM

###

molecular target: mu opioid receptor (MOR) (Homo sapiens, UniProt P35372); test: MOR GTPγS agonist assay; assay type: biochemical; parameters: host or cells: CHO-K1; settings: membranes of CHO cells over-expressing MOR; SPA beads; read-out: MOR GTPγS EC50
pEC50: −log10 of the molar value.
MEASURED_METRIC: pEC50

Data point: CN1Cc2cc(O)ccc2C[C@H]1CNC(=O)c1cccc(Cl)c1 ; pEC50 = > 7.00

Data point: CNC(=O)c1cc(C)c(C[C@@H](CNC(=O)c2ncc(Cl)cc2Cl)N(C)C)c(C)c1 ; pEC50 = 6.00 to 7.00

Data point: Cc1ccc(C(=O)NC[C@H](Cc2ccc3n[nH]cc3c2)N(C)C)c(C)c1 ; pEC50 = 6.00 to 7.00

Data point: CN(C)[C@H](CNC(=O)c1cccc(Cl)c1)Cc1ccc(O)cc1 ; pEC50 = 6.00 to 7.00

Data point: Cc1cc(O)cc(C)c1C[C@@H](CNC(=O)c1cc(F)c(Cl)c(F)c1)N(C)C ; pEC50 = > 7.00

Data point: Cc1cc(O)cc(C)c1C[C@@H](CNC(=O)c1ccc(C(F)(F)F)c(F)c1)N(C)C ; pEC50 = > 7.00

Data point: Cc1cc(O)cc(C)c1C[C@@H](CNC(=O)c1cc2ccccc2cn1)N(C)C ; pEC50 = > 7.00

Data point: CNC(=O)c1ccc(C[C@@H](CNC(=O)c2ccc(Cl)c(Cl)c2)N(C)C)cc1F ; pEC50 = > 7.00

###

target: mu opioid receptor (MOR) (Homo sapiens, UniProt P35372); assay: MOR GTPγS agonist assay; type: biochemical; design: host or cells: CHO-K1; details: membranes of CHO cells over-expressing MOR; SPA beads; read-out: MOR GTPγS EC50
MEASURED_METRIC: EC50

Data point: COc1ccc(C(=O)NC[C@H](Cc2c(C)cc(O)cc2C)N(C)C)cc1Cl [Compound C-5] ; EC50 = < 0.1 µM

Data point: CN(C)[C@H](CNC(=O)c1ccc(Cl)cc1)Cc1ccc(O)cc1Cl [Compound C-21] ; EC50 = > 1 µM

Data point: Cc1cc(O)cc(C)c1C[C@@H](CNC(=O)c1cc(Cl)c(Cl)cc1F)N(C)C [Compound C-57] ; EC50 = < 0.1 µM

Data point: CN(C)[C@H](CNC(=O)c1ccc(Cl)c(Cl)c1)Cc1ccc2n[nH]cc2c1 [Compound C-4] ; EC50 = < 0.1 µM

Data point: CN(C)[C@H](CNC(=O)c1ccc(C2CC2)cc1)Cc1ccc(O)cc1Cl [Compound C-20] ; EC50 = > 1 µM

Data point: Cc1cc(O)cc(C)c1C[C@@H](CNC(=O)c1ccc(Cl)c(F)c1)N(C)C [Compound C-6] ; EC50 = < 0.1 µM

Data point: C[C@H](CC(=O)NC[C@H](Cc1ccc2c(c1)CC(=O)N2)N(C)C)c1ccccc1 [Compound A-22] ; EC50 = < 0.1 µM

Data point: CNC(=O)c1ccc(C[C@@H](CNC(=O)c2ccc(C)cc2C)N(C)C)cc1F [Compound C-40] ; EC50 = < 0.1 µM

Data point: Cc1cc(O)cc(C)c1C[C@@H](CNC(=O)c1ccc2ccccc2c1)N(C)C [Compound C-33] ; EC50 = < 0.1 µM

Data point: CNC(=O)c1cc(C)c(C[C@@H](CNC(=O)c2ccc(Cl)cc2C)N(C)C)c(C)c1 [Compound C-15] ; EC50 = < 0.1 µM

Data point: Cc1cc(O)cc(C)c1C[C@@H](CNC(=O)c1ccc(Cl)c(C(F)(F)F)c1)N(C)C [Compound C-27] ; EC50 = < 0.1 µM

Data point: CN(C)[C@H](CNC(=O)c1ccc(Cl)c(F)c1)Cc1ccc2n[nH]cc2c1 [Compound C-65] ; EC50 = < 0.1 µM

Data point: CNC(=O)c1cc(C)c(C[C@@H](CNC(=O)c2ncc(C)cc2C)N(C)C)c(C)c1 [Compound C-49] ; EC50 = 0.1 to 1 µM

Data point: CC(CC(=O)NC[C@H](Cc1ccc2c(c1)CC(=O)N2)N(C)C)c1ccccc1 (stereo in doubt) [Compound A-23] ; EC50 = < 0.1 µM

Data point: CNC(=O)c1cc(C)c(C[C@@H](CNC(=O)c2ccccc2)N(C)C)c(C)c1 [Compound C-45] ; EC50 = < 0.1 µM

Data point: CN(C)[C@](C)(CNC(=O)c1ccc(Cl)c(Cl)c1)Cc1ccc(O)cc1 [Compound C-3] ; EC50 = > 1 µM
